Catalogue of binders with associated pKd
molecular target: SARS-CoV-2 S protein-RBD-mFc (SARS-CoV-2, UniProt P0DTC2 319-537)
pKd: −log10 of the molar value.
parameterMeasured: pKd

>>> val("HK CVX1-126 (antibody, V domains shown) VH: EVQLVESGGGLVQPGGSLRLSCAASGLTVSSNYMSWVRQAPGKGLEWVSVIYSGGSTYYADSVKGRFTISRHNSKNTLYLQMNSVRAEDTAVYYCARDLSEGGMDVWGQGTTVTVSS VL: DIQMTQSPSSVSASVGDRVTITCRASQGISSWLAWYQQKPGKAPKLLIYAASTLQSGVPSRFSGSGSGTDFTLTISSLQPEDFATYYCQQANGFPPLFGGGTKVEIKR")
9.61
>>> val("HK CV38-221 (antibody, V domains shown) VH: EVQLVESGGGLVQPGGSLRLSCAASGITVSSNYMIWVRQAPGKGLEWVSVIYSGGSTYYADSVKGRFTISRDNSKNTLYLQMNSLRAEDTAVYYCARGFGDYYFDYWGQGTLVTVSS VL: EIVLTQSPGTLSLSPGERATLSCRASQSVSSSYFAWYQQKPGQAPRLLIYGASSRATGIPDRFSGSGSGTDFTLTISRLEPEDFAVYYCQQLYTFGQGTKLEIKR")
9.30
>>> val("HK CV38-139 (antibody, V domains shown) VH: EVQLVESGGGLVQPGGSLRLSCAASGFTVSSNYMSWVRQAPGKGLEWVSVFYSGGSTFYADSVKGRFTISRDNSKNTLYLQMNSLRAEDTAVYYCARGHYDLFDYWGQGTLVTVSS VL: DIQLTQSPSFLSASVGDRVTITCRASQGISSYLAWYQQKPGKAPKLLIYAASTLQSGVPSRFSGSGSGTEFTLTISSLQPEDFATYYCQQLNSYPPGTFGPGTKVDIKR")
9.56
